# Test system: murine neural precursor cells (neurosphere cultures)
# run-description: HTS of LOPAC library against secondary neurosphere cultures, MTT proliferation assay at 3 μM, day 7 (z score, P value)
# Assay type: cell-based, mouse
# assay-conditions: LOPAC library screen, 3 μM, MTT, secondary neurosphere cultures, day 7
Where a name gives a salt, the structure may show the parent alone.
Z Score listing for selected molecules.

[
  {
    "molecule": "c1ccc2c(c1)OCC(C1=NCCN1)O2 (stereo not drawn) [Idazoxan hydrochloride]",
    "system": "murine neural precursor cells (neurosphere cultures)",
    "Z Score": "−1.448"
  },
  {
    "molecule": "C=C/C(C)=C/[C@@]1(C)SC(=O)C(C)=C1O",
    "system": "murine neural precursor cells (neurosphere cultures)",
    "Z Score": "−1.3"
  },
  {
    "molecule": "NC(=O)c1cnccn1 [Pyrazinecarboxamide]",
    "system": "murine neural precursor cells (neurosphere cultures)",
    "Z Score": "−1.617"
  },
  {
    "molecule": "C(=C\\c1ccccc1)/CN1CCN(C(c2ccccc2)c2ccccc2)CC1",
    "system": "murine neural precursor cells (neurosphere cultures)",
    "Z Score": "−1.375"
  },
  {
    "molecule": "CC(=O)O.NC(=NCCC[C@H](N)C(=O)O)NO [NG-Hydroxy-L-arginine acetate]",
    "system": "murine neural precursor cells (neurosphere cultures)",
    "Z Score": "−10.96"
  },
  {
    "molecule": "NS(=O)(=O)c1cccc2c1c([N+](=O)[O-])cc1nc([O-])c([O-])nc12.[Na+].[Na+] [NBQX disodium]",
    "system": "murine neural precursor cells (neurosphere cultures)",
    "Z Score": "−1.675"
  },
  {
    "molecule": "O=C[C@H](Cl)[C@@H](O)[C@H](O)[C@H](O)CO",
    "system": "murine neural precursor cells (neurosphere cultures)",
    "Z Score": "−2.364"
  },
  {
    "molecule": "COc1ccc2c(c1OC)C(=O)O[C@@H]2[C@H]1c2c(cc3c(c2OC)OCO3)CCN1C.Cl [Noscapine hydrchloride]",
    "system": "murine neural precursor cells (neurosphere cultures)",
    "Z Score": "−2.455"
  },
  {
    "molecule": "COc1cc(C(O)CN)ccc1O.Cl (stereo not drawn) [(B1)-Normetanephrine hydrochloride]",
    "system": "murine neural precursor cells (neurosphere cultures)",
    "Z Score": "−1.796"
  },
  {
    "molecule": "Nc1ccn([C@H]2CC[C@@H](CO)O2)c(=O)n1",
    "system": "murine neural precursor cells (neurosphere cultures)",
    "Z Score": "−1.367"
  },
  {
    "molecule": "CCCCCCCCC(=O)NCc1ccc(O)c(OC)c1 [N-Vanillylnonanamide]",
    "system": "murine neural precursor cells (neurosphere cultures)",
    "Z Score": "−9.029"
  },
  {
    "molecule": "CC(C)(C)c1cc(/C=C(\\C#N)C(N)=S)cc(C(C)(C)C)c1O",
    "system": "murine neural precursor cells (neurosphere cultures)",
    "Z Score": "−1.607"
  },
  {
    "molecule": "Clc1cnc(Oc2ccc(Oc3ncc(Cl)cc3Cl)cc2)c(Cl)c1",
    "system": "murine neural precursor cells (neurosphere cultures)",
    "Z Score": "−2.008"
  },
  {
    "molecule": "O=C1C=CC(=O)C=C1",
    "system": "murine neural precursor cells (neurosphere cultures)",
    "Z Score": "−1.571"
  },
  {
    "molecule": "CCNC(=O)[C@H]1O[C@@H](n2cnc3c(N)ncnc32)[C@H](O)[C@@H]1O",
    "system": "murine neural precursor cells (neurosphere cultures)",
    "Z Score": "−2.587"
  },
  {
    "molecule": "C=CCN1CC[C@]23c4c5ccc(O)c4O[C@H]2C(=O)CC[C@@]3(O)[C@H]1C5 [Naloxone hydrochloride]",
    "system": "murine neural precursor cells (neurosphere cultures)",
    "Z Score": "−10.14"
  },
  {
    "molecule": "O=C(Nc1ccc([N+](=O)[O-])cc1Cl)c1cc(Cl)ccc1O [Niclosamide]",
    "system": "murine neural precursor cells (neurosphere cultures)",
    "Z Score": "−2.784"
  },
  {
    "molecule": "NCCCS(=O)(=O)O.[Na] [3-Amino-1-propanesulfonic acid sodium]",
    "system": "murine neural precursor cells (neurosphere cultures)",
    "Z Score": "−6.691"
  },
  {
    "molecule": "Cc1cn([C@H]2C[C@H](N=[N+]=[N-])[C@@H](CO)O2)c(=O)[nH]c1=O",
    "system": "murine neural precursor cells (neurosphere cultures)",
    "Z Score": "−5.023"
  },
  {
    "molecule": "CC(C)COC(=O)OCN1C(=O)CN(CCN2CC(=O)N(COC(=O)OCC(C)C)C(=O)C2)CC1=O",
    "system": "murine neural precursor cells (neurosphere cultures)",
    "Z Score": "−9.6"
  },
  {
    "molecule": "COc1ccccc1OCC(O)CN1CCN(CC(=O)Nc2c(C)cccc2C)CC1 (stereo not drawn) [Ranolazine dihydrochloride]",
    "system": "murine neural precursor cells (neurosphere cultures)",
    "Z Score": "−2.104"
  },
  {
    "molecule": "C[N+](C)(C)CC(=O)O [Betaine hydrochloride]",
    "system": "murine neural precursor cells (neurosphere cultures)",
    "Z Score": "−2.668"
  },
  {
    "molecule": "COc1ccc(C(=O)N2CCCC2=O)cc1",
    "system": "murine neural precursor cells (neurosphere cultures)",
    "Z Score": "−1.355"
  },
  {
    "molecule": "CC(=O)O[C@H]1C(=O)[C@@]2(C)[C@H]([C@H](OC(=O)c3ccccc3)[C@]3(O)C[C@H](OC(=O)[C@H](O)[C@@H](NC(=O)c4ccccc4)c4ccccc4)C(C)=C1C3(C)C)[C@]1(OC(C)=O)CO[C@@H]1C[C@@H]2O",
    "system": "murine neural precursor cells (neurosphere cultures)",
    "Z Score": "−11.27"
  },
  {
    "molecule": "CCCN1C[C@H](CSC)C[C@@H]2c3cccc4[nH]cc(c34)C[C@H]21 [Pergolide methanesulfonate]",
    "system": "murine neural precursor cells (neurosphere cultures)",
    "Z Score": "−2.657"
  },
  {
    "molecule": "COc1cc2nc(N3CCN(C(=O)c4ccco4)CC3)nc(N)c2cc1OC [Prazosin hydrochloride]",
    "system": "murine neural precursor cells (neurosphere cultures)",
    "Z Score": "−2.902"
  },
  {
    "molecule": "N[C@@H](C(=O)N[C@@H]1C(=O)N2C(C(=O)O)=C(Cl)CS[C@H]12)c1ccccc1",
    "system": "murine neural precursor cells (neurosphere cultures)",
    "Z Score": "−3.009"
  },
  {
    "molecule": "COc1cc2nc(N3CCN(C(=O)C4COc5ccccc5O4)CC3)nc(N)c2cc1OC (stereo not drawn) [Doxazosin mesylate]",
    "system": "murine neural precursor cells (neurosphere cultures)",
    "Z Score": "−1.861"
  },
  {
    "molecule": "CNC[C@H](O)c1cccc(O)c1 [Phenylephrine hydrochloride]",
    "system": "murine neural precursor cells (neurosphere cultures)",
    "Z Score": "−1.257"
  },
  {
    "molecule": "CCOC(=O)C1=C(C)NC(C)=C(C(=O)OC)C1c1cccc([N+](=O)[O-])c1 (stereo not drawn)",
    "system": "murine neural precursor cells (neurosphere cultures)",
    "Z Score": "−1.61"
  }
]
